assay: Cell viability (MTT) assay in HepG2 cells; type: cell-based, human; settings: human; HepG2 cells, 0.1 μM to 100 μM; read-out: IC50 (cytotoxicity)
MEASUREMENT TYPE: IC50

Lab note: measured IC50 of O=c1cc(-c2ccc(N3CCOCC3)cc2)oc2c([C@@H]3O[C@H](CO)[C@@H](O)[C@H](O)[C@H]3O)c(O)cc(O)c12 was ≥ 100 µM

====

Reported MTT reduction (% control) values for the following compounds.
Test system: SH-SY5Y neuroblastoma cells
Assay: Cytotoxic activity of compounds alone, MTT cell viability assay
Settings: 50 μM compound alone, 24 h, 37 °C, 0.5% DMSO, SH-SY5Y
Procedure: Neuroprotective assays in human neuroblastoma (SH-SY5Y) cells. […] After 2 h incubating at 37 °C, the optical density (OD) at 540 nm (with a 620 nm reference filter) was measured in an Amersham Biosciences Biotrak II Plate Reader. The percentage of MTT reduction was determined according to Equation (1). […] Tabl e S2. Cytotoxic activity of each compound assessed in SH-SY5Y neuroblastoma cells via an MTT cell viability assay.a Comp ound Nr. […]

Some compounds with recorded MTT reduction (% control):
INSERT INTO assay_data (compound, measurement_target, measurement_type, experimental_result) VALUES
  ('O=c1cc(-c2ccc(N3CCCC3)cc2)oc2cc(O)cc(O)c12', 'SH-SY5Y neuroblastoma cells', 'MTT reduction (% control)', '163.6% ± 72.6'),
  ('O=c1cc(-c2ccc(F)cc2)oc2c([C@@H]3O[C@H](CO)[C@@H](O)[C@H](O)[C@H]3O)c(O)cc(O)c12', 'SH-SY5Y neuroblastoma cells', 'MTT reduction (% control)', '136.7 ±12.9%'),
  ('O=c1cc(C2CC2)oc2cc(O)cc(O)c12', 'SH-SY5Y neuroblastoma cells', 'MTT reduction (% control)', '140.7 ± 12.0%');

Lab note: measured MTT reduction (% control) of O=c1ccoc2c([C@@H]3O[C@H](CO)[C@@H](O)[C@H](O)[C@H]3O)c(O)cc(O)c12 was 149.2 ± 21.6%

Lab note: measured MTT reduction (% control) of CN(C)c1ccc(-c2cc(=O)c3c(O)cc(O)cc3o2)cc1 [Compound 10, 4′-Dimethylamino-5,7-dihydroxyflavone] was 191.5 ± 22.9%
